# EXPERIMENT SUMMARY: in vitro
# STUDY CONDITIONS: mouse, plasma
Non-standard residues stand in square brackets, D forms with d. Residues, ends and D or L forms follow the SMILES beside them. Nle = CCCC[C@H](N)C(=O)O; Aib = CC(C)(N)C(=O)O
PROPERTY: remaining at 0.25 h, 1 µM (%)

COMPOUND: CCCC[C@H](NC(=O)[C@@H](NC(=O)[C@H](N)Cc1ccc(O)cc1)C(C)C)C(=O)N[C@H](C)C(=O)N[C@@H](Cc1c[nH]cn1)C(=O)N[C@@H](Cc1ccccc1)C(=O)N[C@@H](CCCNC(=N)N)C(=O)N[C@H](Cc1c[nH]c2ccccc12)C(=O)N[C@@H](CC(=O)O)C(=O)N[C@@H](CCCNC(=N)N)C(=O)N[C@@H](Cc1ccccc1)C(=O)NCC(=O)O [CTX-1125] (H-[dY]V[Nle][dA]HFR[dW]DRFG-OH)
VALUE UNIT: %
MEASURED: 105
--
COMPOUND: CCCC[C@H](NC(=O)[C@@H](NC(=O)[C@@H](N)Cc1ccc(O)cc1)C(C)C)C(=O)N[C@H](C)C(=O)N[C@@H](Cc1c[nH]cn1)C(=O)N[C@@H](Cc1ccccc1)C(=O)N[C@@H](CCCNC(=N)N)C(=O)N[C@H](Cc1c[nH]c2ccccc12)C(=O)N[C@@H](CC(=O)O)C(=O)N[C@@H](CCCNC(=N)N)C(=O)N[C@H](Cc1ccccc1)C(=O)NCC(=O)O [CTX-1127] (H-YV[Nle][dA]HFR[dW]DR[dF]G-OH)
VALUE UNIT: %
MEASURED: 0.25
--
COMPOUND: CCCC[C@H](NC(=O)[C@@H](NC(=O)[C@@H](N)Cc1ccc(O)cc1)C(C)C)C(=O)N[C@H](C)C(=O)N[C@@H](Cc1c[nH]cn1)C(=O)N[C@@H](Cc1ccccc1)C(=O)N[C@@H](CCCNC(=N)N)C(=O)N[C@H](Cc1c[nH]c2ccccc12)C(=O)N[C@@H](CC(=O)O)C(=O)N[C@@H](CCCNC(=N)N)C(=O)N[C@@H](Cc1ccccc1)C(=O)NCC(=O)O [CTX-1103] (H-YV[Nle][dA]HFR[dW]DRFG-OH)
VALUE UNIT: %
MEASURED: 0.21
--
COMPOUND: CCCC[C@H](NC(=O)[C@@H](NC(=O)[C@@H](N)Cc1ccc(O)cc1)C(C)C)C(=O)N[C@H](C)C(=O)N[C@@H](Cc1c[nH]cn1)C(=O)N[C@@H](Cc1ccccc1)C(=O)N[C@@H](CCCNC(=N)N)C(=O)N[C@H](Cc1c[nH]c2ccccc12)C(=O)N[C@@H](CC(=O)O)C(N)=O [CTX-1108, Tyr-Val-Nle-D-Ala-His-Phe-Arg-D-Trp-Asp] (H-YV[Nle][dA]HFR[dW]D-NH2)
VALUE UNIT: %
MEASURED: 0.33
--
COMPOUND: CCCC[C@H](NC(=O)[C@@H](NC(=O)[C@@H](N)Cc1ccc(O)cc1)C(C)C)C(=O)NC(C)(C)C(=O)N[C@@H](Cc1c[nH]cn1)C(=O)N[C@@H](Cc1ccccc1)C(=O)N[C@@H](CCCNC(=N)N)C(=O)N[C@H](Cc1c[nH]c2ccccc12)C(=O)N[C@@H](CC(=O)O)C(=O)N[C@@H](CCCNC(=N)N)C(=O)N[C@@H](Cc1ccccc1)C(=O)NCC(=O)O [CTX-1134] (H-YV[Nle][Aib]HFR[dW]DRFG-OH)
VALUE UNIT: %
MEASURED: 2.97
